Known log10 IC50 of a selection of molecules
# SYSTEM_NAME: human factor Xa (FXa) (Homo sapiens)
# ASSAY_NOTES: Measurement of factor Xa inhibition (chromogenic substrate)
# Type: biochemical
PARAMETER_MEASURED: log10 IC50 (log10 of the value in nM)

MOLECULE | SYSTEM_NAME | log10 IC50
NC1CCN(c2ccc(N3CC(CNC(=O)c4ccc(Cl)s4)OC3=O)cc2F)C1 (centres unmarked) | human factor Xa (FXa) (Homo sapiens) | 1.11
CC(C)(C)OC(=O)NC1CCCN(c2ccc(N3CC(CNC(=O)c4ccc(Cl)s4)OC3=O)cc2F)C1 (centres unmarked) | human factor Xa (FXa) (Homo sapiens) | 3.04
O=C(NC[C@H]1CN(c2ccc(N3CCCC3=O)c(F)c2)C(=O)O1)c1ccc(Br)s1 | human factor Xa (FXa) (Homo sapiens) | 0.30
NC1CCCN(c2ccc(N3CC(CNC(=O)c4ccc(Cl)s4)OC3=O)cc2F)C1 (centres unmarked) | human factor Xa (FXa) (Homo sapiens) | 1.64
O=C(NC[C@H]1CN(c2ccc(N3CCOCC3=O)c(F)c2)C(=O)O1)c1ccc(Br)s1 | human factor Xa (FXa) (Homo sapiens) | -0.15
O=C(NCC1CN(c2ccc(C3CCCCC3)cc2)C(=O)O1)c1ccc(Cl)s1 (centres unmarked) | human factor Xa (FXa) (Homo sapiens) | 2.93
O=C(NC[C@H]1CN(c2ccc(N3CCCC3=O)c(F)c2)C(=O)O1)c1ccc(Cl)s1 | human factor Xa (FXa) (Homo sapiens) | 0.52
O=C(NCC1CN(c2ccc(-n3cccc3)cc2)C(=O)O1)c1ccc(Cl)s1 (centres unmarked) | human factor Xa (FXa) (Homo sapiens) | 3.23

---

# SYSTEM_NAME: UniProtKB P00742
# ASSAY_NOTES: Measurement of factor Xa inhibition (chromogenic substrate)
# Assay type: biochemical
# SETTINGS: table of Examples 48-58

COMPOUND | IC50
O=C(NC[C@H]1CN(c2ccc(N3CCCC3=O)cc2)C(=O)O1)c1ccc(Br)s1 [Example 56] | 4 nM
N#Cc1cc(N2C[C@H](CNC(=O)c3ccc(Cl)s3)OC2=O)ccc1N1CCCC1 [Example 54] | 130 nM
O=C(NC[C@H]1CN(c2ccc3c(c2)OCc2nccn2-3)C(=O)O1)c1ccc(Cl)s1 [Example 53] | 740 nM

---

# SYSTEM_NAME: human factor Xa (FXa) (Homo sapiens, UniProt P00742)
# Sequence (P00742 235-488 limits assumed): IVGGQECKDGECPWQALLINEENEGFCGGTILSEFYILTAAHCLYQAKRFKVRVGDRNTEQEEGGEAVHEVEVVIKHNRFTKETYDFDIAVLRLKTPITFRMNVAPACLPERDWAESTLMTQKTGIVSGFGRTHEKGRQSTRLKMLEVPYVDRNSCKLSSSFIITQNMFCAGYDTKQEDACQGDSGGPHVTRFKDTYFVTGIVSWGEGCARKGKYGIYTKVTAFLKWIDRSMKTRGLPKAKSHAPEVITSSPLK
# Sequence (P00742 41-179 partner limits assumed): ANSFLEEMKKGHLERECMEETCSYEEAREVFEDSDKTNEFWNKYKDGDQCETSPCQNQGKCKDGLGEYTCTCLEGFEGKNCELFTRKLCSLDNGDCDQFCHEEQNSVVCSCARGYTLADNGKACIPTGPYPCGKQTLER
# ASSAY_NOTES: Measurement of factor Xa inhibition (chromogenic substrate)
# Type: biochemical
# SETTINGS: table of Examples 48-58
pIC50: −log10 of the molar value.

COMPOUND | SYSTEM_NAME | pIC50
O=C(NC[C@H]1CN(c2ccc(N3CCOC3=O)cc2)C(=O)O1)c1ccc(Cl)s1 | human factor Xa (FXa) (Homo sapiens, UniProt P00742) | 7.40
Cc1ccc(C(=O)NC[C@H]2CN(c3ccc(N4CCCC4=O)cc3)C(=O)O2)s1 | human factor Xa (FXa) (Homo sapiens, UniProt P00742) | 6.24
CN1C(=O)COc2cc(N3C[C@H](CNC(=O)c4ccc(Cl)s4)OC3=O)ccc21 | human factor Xa (FXa) (Homo sapiens, UniProt P00742) | 5.92
CC1Oc2cc(N3C[C@H](CNC(=O)c4ccc(Cl)s4)OC3=O)ccc2N(C)C1=O (stereo partly shown) | human factor Xa (FXa) (Homo sapiens, UniProt P00742) | 5.94

Source of measurements: patent US20040242660A1
